Each entry below lists one item and its recorded % inhibition of 14C-serotonin release (SRA), HIT-Positive Patient #5 serum, scFv 75 µg/mL value.
Biological target: T1, PF4/heparin complex (human PF4 complexed with heparin) (human, UniProt P02776 32-101)
T1 sequence: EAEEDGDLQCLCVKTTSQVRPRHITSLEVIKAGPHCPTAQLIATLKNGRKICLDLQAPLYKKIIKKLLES
Experiment: cell-based or functional assay
Your answer should be a plain number; it is taken to be in %.

// lookup % inhibition of 14C-serotonin release (SRA), HIT-Positive Patient #5 serum, scFv 75 µg/mL for Mutant D scFv, scFv(Y156H) (scFv, VL-linker-VH; histidine-tagged, from E. coli BL21; also called Mut D; not shown: histidine tag from the pADL-22c vector) scFv: DIQMIQSQKFMSTSVGDRVTVTCKASQNVGTNVAWYQQKPGQSPNALIYSASYRYSGVPDRFTGSGSGTDFTLTITNVQSEDLADYFCQQYNSYPLTFGTGTKLDLKGGGGSGGGGSGGGGSVQLQQSGAELVKPGASVKLSCKASGYTFTNYFIHWVKQRPGQGLEWIGEINPRNGDTDFNEKFESRATLTVDKSSSTAYMQLSSLTSEDSAIYYCTRSPYGNNYGFTYWGQGTLVTVSA
87.5

Then Wildtype scFv (KKO-derived single chain variable fragment) (scFv, VL-(G4S)3 linker-VH; expressed in E. coli BL21 from pADL-22c, purified on Ni-NTA as histidine-tagged scFv, about 28 kDa; also called WT; KKO-scFv; not shown: histidine tag from the pADL-22c vector) scFv: DIQMIQSQKFMSTSVGDRVTVTCKASQNVGTNVAWYQQKPGQSPNALIYSASYRYSGVPDRFTGSGSGTDFTLTITNVQSEDLADYFCQQYNSYPLTFGTGTKLDLKGGGGSGGGGSGGGGSVQLQQSGAELVKPGASVKLSCKASGYTFTNYFIYWVKQRPGQGLEWIGEINPRNGDTDFNEKFESRATLTVDKSSSTAYMQLSSLTSEDSAIYYCTRSPYGNNYGFTYWGQGTLVTVSA ?
20.8

Then Mutant C scFv, scFv(S50N, Y53H) (scFv, VL-linker-VH; histidine-tagged, from E. coli BL21; also called Mut C; not shown: histidine tag from the pADL-22c vector) scFv: DIQMIQSQKFMSTSVGDRVTVTCKASQNVGTNVAWYQQKPGQSPNALIYNASHRYSGVPDRFTGSGSGTDFTLTITNVQSEDLADYFCQQYNSYPLTFGTGTKLDLKGGGGSGGGGSGGGGSVQLQQSGAELVKPGASVKLSCKASGYTFTNYFIYWVKQRPGQGLEWIGEINPRNGDTDFNEKFESRATLTVDKSSSTAYMQLSSLTSEDSAIYYCTRSPYGNNYGFTYWGQGTLVTVSA ?
6.9

Then Mutant E scFv, scFv(Y156H, D180G, Q233P) (scFv, VL-linker-VH; histidine-tagged, from E. coli BL21; also called Mut E; not shown: histidine tag from the pADL-22c vector) scFv: DIQMIQSQKFMSTSVGDRVTVTCKASQNVGTNVAWYQQKPGQSPNALIYSASYRYSGVPDRFTGSGSGTDFTLTITNVQSEDLADYFCQQYNSYPLTFGTGTKLDLKGGGGSGGGGSGGGGSVQLQQSGAELVKPGASVKLSCKASGYTFTNYFIHWVKQRPGQGLEWIGEINPKNGDTGFNEKFESRATLTVDKSSSTAYMQLSSLTSEDSAIYYCTRSPYGNNYGFTYWGPGTLVTVSA ?
59.7
